# experimental system: Human immunodeficiency virus type 1 integrase (Human immunodeficiency virus 1, UniProt Q7ZJM1)
# Sequence (Q7ZJM1 whole entry): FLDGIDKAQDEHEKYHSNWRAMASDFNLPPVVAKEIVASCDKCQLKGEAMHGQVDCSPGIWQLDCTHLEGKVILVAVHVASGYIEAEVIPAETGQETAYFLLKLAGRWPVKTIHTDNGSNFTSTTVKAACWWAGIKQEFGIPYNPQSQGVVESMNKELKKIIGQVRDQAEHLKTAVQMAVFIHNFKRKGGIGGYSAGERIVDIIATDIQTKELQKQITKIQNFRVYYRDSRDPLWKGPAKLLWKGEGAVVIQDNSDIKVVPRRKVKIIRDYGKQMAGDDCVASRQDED
# assay details: Inhibition of HIV1 integrase strand transfer activity
measured metric: IC50

## Input # IC50 lookup, item O=C1Cc2ccccc2C(=O)N1O
## Output > 5 mM

* * *

# experimental system: Human immunodeficiency virus type 1 integrase (Human immunodeficiency virus 1, UniProt Q7ZJM1)
# assay details: Inhibition of recombinant HIV1 integrase bound with donor DNA-SPA beads using [3H] target DNA as substrate assessed as strand transfer activity preincubated for 60 mins followed by substrate addition measured after 25 to 45 mins
measured metric: IC50
Give the number first and the unit second.

## Input # IC50 lookup, item O=c1nc(NCc2ccc(-c3ccncc3)cc2)c2cccnc2n1O
## Output 1260 nM

## Input # IC50 lookup, item O=c1nc(Nc2ccc(N3CCOCC3)cc2)c2cccnc2n1O
## Output 500 nM

## Input # IC50 lookup, item O=c1nc(N2CCC(F)(F)CC2)c2cccnc2n1O
## Output 7940 nM

## Input # IC50 lookup, item O=c1nc(NCc2ccc(N3CCOCC3)cc2)c2cccnc2n1O
## Output 1580 nM

## Input # IC50 lookup, item O=c1nc(NCc2ccc(-c3ccccc3)cc2)c2cccnc2n1O
## Output 630 nM

## Input # IC50 lookup, item O=c1nc(NCc2cccc(CN3CCOCC3)c2)c2cccnc2n1O
## Output 15900 nM
